Measured IC50, listed per entry.
- MEASURED_ON: PSMA-expressing C4-2 cells (Homo sapiens)
- Construct: PSMA-expressing C4-2 cells (ATCC, Cat. No. CRL-3314) were cultured in RPMI-1640; host or cells: C4-2 cells
- Sequence (Q04609 whole entry): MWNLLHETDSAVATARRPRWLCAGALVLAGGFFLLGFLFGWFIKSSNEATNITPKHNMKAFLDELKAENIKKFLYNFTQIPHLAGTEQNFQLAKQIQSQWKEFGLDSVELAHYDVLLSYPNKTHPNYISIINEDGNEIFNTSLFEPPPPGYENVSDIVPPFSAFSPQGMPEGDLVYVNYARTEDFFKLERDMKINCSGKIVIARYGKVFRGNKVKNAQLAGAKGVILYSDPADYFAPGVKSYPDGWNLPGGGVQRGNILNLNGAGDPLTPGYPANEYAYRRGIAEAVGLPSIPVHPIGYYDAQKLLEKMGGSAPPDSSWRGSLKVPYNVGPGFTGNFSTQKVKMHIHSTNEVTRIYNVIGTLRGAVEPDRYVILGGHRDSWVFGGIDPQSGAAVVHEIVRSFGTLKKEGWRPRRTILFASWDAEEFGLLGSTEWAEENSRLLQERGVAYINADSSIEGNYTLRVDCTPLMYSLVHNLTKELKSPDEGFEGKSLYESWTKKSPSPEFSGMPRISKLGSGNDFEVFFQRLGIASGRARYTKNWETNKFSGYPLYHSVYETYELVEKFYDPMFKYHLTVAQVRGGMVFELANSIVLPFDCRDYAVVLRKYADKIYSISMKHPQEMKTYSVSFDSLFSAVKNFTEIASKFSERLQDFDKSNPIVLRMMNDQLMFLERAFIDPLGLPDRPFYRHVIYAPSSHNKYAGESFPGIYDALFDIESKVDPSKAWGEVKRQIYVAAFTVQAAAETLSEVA
- ASSAY_OVERVIEW: FACS binding assay (competition with 50 nM PSM-0183)
- COND: pIC50 category of FACS binding, C4-2 cells; read-out: pIC50 [C4-2] CAT (converted)
Bridge positions count the residues as written; N and C are the ends. Square brackets hold non-standard residues; d marks the D form. Peptide text beside a SMILES is read from it. * marks the point of attachment. TtdsdLys(DOTA)NH2 = NC(=O)[C@@H](CCCCNC(=O)CN1CCN(CC(=O)O)CCN(CC(=O)O)CCN(CC(=O)O)CC1)NC(=O)CCC(=O)NCCCOCCOCCOCCCN*; DOTA = O=C(O)CN1CCN(CC(=O)O)CCN(CC(=O)*)CCN(CC(=O)O)CC1; Phe(4-Cl) = N[C@@H](Cc1ccc(Cl)cc1)C(=O)O; Tle = CC(C)(C)[C@H](N)C(=O)O; Hexanoyl = CCCCCC(=O)*; Aib = CC(C)(N)C(=O)O
ASSAY_ENDPOINT: IC50

{"columns": ["COMPOUND", "ENDPOINT_RESULT"],
 "data": [
  ["C[C@@H](O)[C@H](NC(=O)CN1CCN(CC(=O)O)CCN(CC(=O)O)CCN(CC(=O)O)CC1)C(=O)NC(C)(C)C(=O)N[C@@H](Cc1ccc(Cl)cc1)C(=O)N[C@H]1CSSC[C@@H](C(=O)N[C@H](C(N)=O)C(C)(C)C)NC(=O)[C@H](CC(N)=O)NC(=O)C(C)(C)NC(=O)[C@H](CCCNC(=N)N)NC(=O)[C@H](CCCCN)NC1=O [PSM-0534] ({DOTA}-T[Aib][Phe(4-Cl)]CKR[Aib]NC[Tle]-NH2; disulfide 4-9)", "< 200 nM"],
  ["CCCCCC(=O)N[C@H](C(=O)NC(C)(C)C(=O)N[C@@H](Cc1ccccc1)C(=O)N[C@H]1CSSC[C@@H](C(=O)N[C@H](C(=O)N[C@H](C(=O)NCCCOCCOCCOCCCNC(=O)CCC(=O)N[C@H](CCCCNC(=O)CN2CCN(CC(=O)O)CCN(CC(=O)O)CCN(CC(=O)O)CC2)C(N)=O)[C@@H](C)O)C(C)(C)C)NC(=O)[C@H](CC(N)=O)NC(=O)[C@H](C)NC(=O)[C@H](CCCNC(=N)N)NC(=O)[C@H](CCCCN)NC1=O)[C@@H](C)O [PSM-0462] (Hexanoyl-T[Aib]FCKRANC[Tle]T-{TtdsdLys(DOTA)NH2}; disulfide 4-9)", "< 200 nM"]
]}

---

Measured Kd, listed per entry.
- MEASURED_ON: Fc-fusion protein of human PSMA (hPSMA-Fc) (Homo sapiens)
- Construct: purchased Acro Biosystems PSA-H5264
- Sequence (Q04609 44-750 limits assumed): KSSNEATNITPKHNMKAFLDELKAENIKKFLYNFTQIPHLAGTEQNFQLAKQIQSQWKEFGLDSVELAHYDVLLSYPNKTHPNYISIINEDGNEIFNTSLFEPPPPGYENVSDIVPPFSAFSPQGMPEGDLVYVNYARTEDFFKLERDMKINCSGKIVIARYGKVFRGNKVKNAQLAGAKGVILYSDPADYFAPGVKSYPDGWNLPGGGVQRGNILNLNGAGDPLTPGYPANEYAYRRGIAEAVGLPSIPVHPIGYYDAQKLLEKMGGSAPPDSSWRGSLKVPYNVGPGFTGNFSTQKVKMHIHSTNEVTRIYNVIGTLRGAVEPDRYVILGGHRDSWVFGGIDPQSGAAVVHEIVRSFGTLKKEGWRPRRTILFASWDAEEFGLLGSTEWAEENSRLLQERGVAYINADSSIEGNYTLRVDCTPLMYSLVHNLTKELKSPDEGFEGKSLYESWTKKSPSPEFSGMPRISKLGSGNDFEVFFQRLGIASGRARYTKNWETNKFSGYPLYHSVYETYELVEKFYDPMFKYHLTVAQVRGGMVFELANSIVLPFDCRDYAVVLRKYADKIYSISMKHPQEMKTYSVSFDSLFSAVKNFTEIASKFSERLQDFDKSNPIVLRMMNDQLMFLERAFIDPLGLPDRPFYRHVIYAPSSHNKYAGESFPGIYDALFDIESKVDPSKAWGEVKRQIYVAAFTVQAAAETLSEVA
- ASSAY_OVERVIEW: Surface plasmon resonance assay (Biacore T200, single cycle kinetic)
- Format: binding
- COND: pKD category for PSMA SPR activity assay, hPSMA-Fc, 25° C.; read-out: pKD CAT (converted)
Numbered stars: 1 amine (or outer) side, 2 acyl side, 3 side chain; on linkers, the order of the positions; unused ones are H or OH. Bridge positions count the residues as written; N and C are the ends. Square brackets hold non-standard residues; d marks the D form. Peptide text beside a SMILES is read from it. * marks the point of attachment. DOTA = O=C(O)CN1CCN(CC(=O)O)CCN(CC(=O)*)CCN(CC(=O)O)CC1; Trp(5-Cl) = N[C@@H](Cc1c[nH]c2ccc(Cl)cc12)C(=O)O; Phe(4-Cl) = N[C@@H](Cc1ccc(Cl)cc1)C(=O)O; Arg(Me) = CNC(=N)NCCC[C@H](N)C(=O)O; X1 = O=C(CC1CCN([*:1])CC1)[*:2]; Cit = NC(=O)NCCC[C@H](N)C(=O)O; Lys(Me) = CNCCCC[C@H](N)C(=O)O; Tle = CC(C)(C)[C@H](N)C(=O)O; Aib = CC(C)(N)C(=O)O
ASSAY_ENDPOINT: Kd

{"columns": ["COMPOUND", "ENDPOINT_RESULT"],
 "data": [
  ["CC(=O)NC(C)(C)C(=O)N[C@@H](Cc1ccc(Cl)cc1)C(=O)N[C@H]1CSSC[C@@H](C(N)=O)NC(=O)[C@H](CC(N)=O)NC(=O)C(C)(C)NC(=O)[C@H](CCCNC(=N)N)NC(=O)[C@H](CCCCN)NC1=O [PSM-0443, Ac-Aib-Pcf-[Cys-Lys-Arg-Aib-Asn-Cys]-NH2] (Ac-[Aib][Phe(4-Cl)]CKR[Aib]NC-NH2; disulfide 3-8)", "> 501 nM"],
  ["CNCCCC[C@@H]1NC(=O)[C@@H](NC(=O)[C@H](Cc2ccc(Cl)cc2)NC(=O)C(C)(C)NC(=O)[C@@H](NC(=O)CC2CCN(C(=O)CN3CCN(CC(=O)O)CCN(CC(=O)O)CCN(CC(=O)O)CC3)CC2)[C@@H](C)O)CSSC[C@@H](C(=O)N[C@H](C(N)=O)C(C)(C)C)NC(=O)[C@H](CC(N)=O)NC(=O)C(C)(C)NC(=O)[C@H](CCCNC(=N)NC)NC1=O [PSM-0380] ({DOTA}-[X1]T[Aib][Phe(4-Cl)]C[Lys(Me)][Arg(Me)][Aib]NC[Tle]-NH2; disulfide 5-10)", "< 12.6 nM"],
  ["C[C@@H](O)[C@H](NC(=O)[C@@H](NC(=O)[C@@H]1CSSC[C@H](NC(=O)[C@H](Cc2c[nH]c3ccc(Cl)cc23)NC(=O)C(C)(C)NC(=O)[C@@H](NC(=O)CC2CCN(C(=O)CN3CCN(CC(=O)O)CCN(CC(=O)O)CCN(CC(=O)O)CC3)CC2)[C@@H](C)O)C(=O)N[C@@H](CCCCN)C(=O)N[C@@H](CCCNC(N)=O)C(=O)NC(C)(C)C(=O)N[C@@H](CC(N)=O)C(=O)N1)C(C)(C)C)C(N)=O [PSM-0406] ({DOTA}-[X1]T[Aib][Trp(5-Cl)]CK[Cit][Aib]NC[Tle]T-NH2; disulfide 5-10)", "> 501 nM"]
]}
